System: HeLa cells
Test: Compound screen by flow cytometry: HeLa cell count as surrogate readout of cell viability (z-scoreHeLa)
Format: cell-based, human
Conditions: PKIS compound screen, HeLa cell count, replicate 1
Protocol: The cells were resuspended in cell culture medium without antibiotics, seeded with 10,000 cells/well into Costar flat-bottom 96-well plates (Corning, Amsterdam, the Netherlands), and were incubated overnight at 37°C/5% CO2. […] The calculated mean MOI throughout all experiments was 6.8 ± 4.6 (mean ± SD). […] HeLa cells were harvested by trypsinization and fixed with 1% paraformaldehyde. Samples were measured on a FACSLyric with HTS extension (BD Biosciences). […]
// reported z-scoreHeLa rep 1 for each item listed
Just the number, please, no unit after it.

Example entries and their recorded answers appear below.
COc1cc2ncn(-c3cc(OCc4ccccc4C(F)(F)F)c(C(=O)N(C)C)s3)c2cc1OC [GSK1030062A] :: -1.53
COc1ccc(Nc2nccc(N3CCC(NC(=O)C(C)c4ccc(Cl)cc4)CC3)n2)cc1 (stereo not drawn) [GSK1379812A] :: 0.21
O=C(Nc1n[nH]c2nc(-c3ccccc3)c(Br)cc12)C1CC1 :: -0.18
CC(C)S(=O)(=O)N1CCN(Cc2ccc3c(c2)nc(NC(=O)c2ccsc2)n3C[C@H](O)c2ccccc2)CC1 [GW635815X] :: 0.24
CCCNC(=O)Nc1ccc(N(C)c2ccnc(NC3CC3)n2)cc1 [GW818933X] :: -0.17
c1ccc(-c2n[nH]cc2Nc2ccnc3ccccc23)nc1 [GW694077X] :: -0.51
COc1cc2c(Nc3cccc(NC(=O)c4ccccc4)c3)ncnc2cc1OCCCN1CCOCC1 [GSK223810A] :: -0.25
COc1cc(Nc2nccc(N3CCC(NC(=O)Nc4cccc(C(C)=O)c4)C3)n2)cc(OC)c1OC (stereo not drawn) [GSK1379753A] :: -0.37
Cc1nn2c(=O)cc(N3CCOCC3)nc2n1Cc1cccc(Cl)c1Cl [GSK2342769A] :: 0.25
O=c1cc(N2CCOCC2)nc2n(Cc3cccc(Cl)c3Cl)c(C3CC3)nn12 [GSK2358994A] :: 2.13

Q. I would be grateful if you could share the reported z-scoreHeLa rep 1 for Fc1cc(Cl)ccc1Nc1ccnc2cc(-c3ccc(CN4CCOCC4)o3)ccc12 [GW560109X] .
A. 1.27

Q. I would be grateful if you could share the reported z-scoreHeLa rep 1 for CN(C)CCCNc1nccc(-c2c(-c3ccc(F)cc3)nn3cc(C(F)(F)F)ccc23)n1 [GW618013A] .
A. 0.54

Q. I would be grateful if you could share the reported z-scoreHeLa rep 1 for Cc1cc(O)cc(C)c1/C=C/c1cncc(C(N)=O)c1 [GW435821X] .
A. -1.68

Q. I would be grateful if you could share the reported z-scoreHeLa rep 1 for Cc1cn2c(=O)cc(N3CCOCC3)nc2n1Cc1cccc(Cl)c1Cl [GSK2334006A] .
A. 1.39

Q. I would be grateful if you could share the reported z-scoreHeLa rep 1 for COC(=O)Nc1nc2ccc(Oc3ccc(NC(=O)Nc4cc(C(F)(F)F)ccc4F)cc3)cc2n1C [GW692089A] .
A. -0.29

Q. I would be grateful if you could share the reported z-scoreHeLa rep 1 for CCn1c(-c2nonc2N)nc2c(C#CC(C)(C)O)nc(OC[C@@H](N)c3ccccc3)cc21 [GSK938890A] .
A. -0.88

Q. I would be grateful if you could share the reported z-scoreHeLa rep 1 for Cc1cccc(-c2nc(Nc3cccc(C(N)=O)c3)c3ccccc3n2)n1 [GW876019X] .
A. -0.74

Q. I would be grateful if you could share the reported z-scoreHeLa rep 1 for COc1ccc(COc2ccc(Cc3cnc(N)nc3N)cc2OC)cc1 [GW632580X] .
A. -0.51

Q. I would be grateful if you could share the reported z-scoreHeLa rep 1 for CCOc1ccc2c(-c3ccnc(Nc4cccc(C(F)(F)F)c4)n3)cnn2n1 [GW811761X] .
A. 0.82

Q. I would be grateful if you could share the reported z-scoreHeLa rep 1 for NC(=O)c1cccc(Nc2nccc(Nc3ccc(Oc4cccc(Cl)c4)c(Cl)c3)n2)c1 [GW659008A] .
A. 0.78

Q. I would be grateful if you could share the reported z-scoreHeLa rep 1 for COc1ccc(Nc2nccc(N3CCC(NC(=O)Nc4cccc(OC)c4)C3)n2)cc1 (stereo not drawn) [GSK1379742A] .
A. 0.84

Q. I would be grateful if you could share the reported z-scoreHeLa rep 1 for O=c1cc(N2CCOCC2)nc2n(Cc3cccc4ccccc34)ccn12 [GSK2333389A] .
A. 0.12

Q. I would be grateful if you could share the reported z-scoreHeLa rep 1 for COc1cc(Nc2nccc(N3CCC(NC(=O)c4cc5ccccc5s4)C3)n2)cc(OC)c1OC (stereo not drawn) [GSK1379760A] .
A. 1.65

Q. I would be grateful if you could share the reported z-scoreHeLa rep 1 for COc1cccc(NC(=O)NC2CCN(c3ccnc(Nc4cc(OC)c(OC)c(OC)c4)n3)C2)c1 (stereo not drawn) [GSK1379763A] .
A. -0.83
